# Test system: MOLM-13 cells
# assay: MOLM-13 Cell Proliferation Assay (indicator of DHODH inhibition)
# Assay type: cell-based
# run.parameters: Homo sapiens, 72 Hours of culture, CellTiter-Glo, no uridine

{"compound": "CN(C)c1ncc(C2c3[nH]c4cc(F)c(Cl)cc4c3CCN2c2ncc(Cl)cn2)cn1 (stereo not shown) [Compound 102]", "IC50 (µM)": 0.0196}
{"compound": "CSc1ncc(C2c3[nH]c4ccc(Cl)cc4c3CCN2c2nc(C)nc(C)n2)cn1 (stereo not shown) [Compound 346]", "IC50 (µM)": 0.0052}
{"compound": "Cc1ccc([C@@H]2c3[nH]c4ccc(Cl)cc4c3CCN2c2ncc(F)cn2)c(F)c1F [Compound 179]", "IC50 (µM)": 0.0232}
{"compound": "Cc1ccc(C2c3[nH]c4cc(F)c(Cl)cc4c3CCN2c2nc(Cl)cc(N(C)C)n2)cc1 (stereo not shown) [Cpd 17]", "IC50 (µM)": 0.0184}

---

# Test system: MOLM-13 cells
# assay: MOLM-13 Cell Proliferation Assay (indicator of DHODH inhibition)
# Type: cell-based
# run.parameters: Homo sapiens, 72 Hours of culture, CellTiter-Glo, no uridine

{"molecule": "Fc1cc2[nH]c3c(c2cc1Cl)CCN(c1nccc(C(F)(F)F)n1)C3c1cccc(F)c1F (stereo not shown)", "IC50 [nM]": 1.9}
{"molecule": "O=[N+]([O-])c1c(Cl)ccc2[nH]c3c(c12)CCN(c1nccc(C(F)(F)F)n1)C3c1cnc(N2CCOCC2)nc1 (stereo not shown)", "IC50 [nM]": 29.7}
{"molecule": "Cc1ccc([C@H]2c3[nH]c4ccc(Cl)cc4c3CCN2c2nc(C)c(F)c(C#N)n2)c(F)c1F", "IC50 [nM]": 0.8}
{"molecule": "CN(C)c1ncc(C2c3[nH]c4cc(F)c(Cl)cc4c3CCN2c2nccc(C(F)(F)F)n2)cn1 (stereo not shown)", "IC50 [nM]": 4.6}
{"molecule": "CN(C)c1ccc(C2c3[nH]c4cc(F)c(Cl)cc4c3CCN2c2nccc(C(F)(F)F)n2)cc1 (stereo not shown)", "IC50 [nM]": 10.6}
{"molecule": "N#Cc1nc(N2CCc3c([nH]c4ccc(Cl)cc34)[C@@H]2c2ccc(N3CCOCC3)nc2)ncc1F", "IC50 [nM]": 2.3}
{"molecule": "N#Cc1cc(C#N)nc(N2CCc3c([nH]c4cc(F)c(Cl)cc34)C2c2cccc(F)c2F)n1 (stereo not shown)", "IC50 [nM]": 16.4}

---

# Test system: MOLM-13 cells
# assay: MOLM-13 Cell Proliferation Assay (indicator of DHODH inhibition)
# Assay type: cell-based
# run.parameters: Homo sapiens, 72 Hours of culture, CellTiter-Glo, no uridine
Label key: condition met means IC50 under 4 nM; condition not met means IC50 of 4 nM or more.

{"compound": "Cc1ccc([C@H]2c3[nH]c4ccc(Cl)cc4c3CCN2c2nc(C)c(F)c(C)n2)cc1", "cat": "condition not met"}
{"compound": "Cc1ccc(C2c3[nH]c4ccc(F)c(F)c4c3CCN2c2ncc(Cl)cn2)cc1 (centres unmarked)", "cat": "condition not met"}
{"compound": "Cc1cc(C#N)nc(N2CCc3c([nH]c4ccc(Cl)cc34)C2c2cnc(N3CCOCC3)nc2)n1 (centres unmarked)", "cat": "condition not met"}
{"compound": "CC(C)c1ccc(C2c3[nH]c4cc(F)c(Cl)cc4c3CCN2c2ncc(C(F)(F)F)cn2)cc1 (centres unmarked)", "cat": "condition not met"}
{"compound": "Cc1ccc(C2c3[nH]c4ccc(Cl)cc4c3CCN2c2nncc(C(F)(F)F)n2)c(F)c1F (centres unmarked)", "cat": "condition met"}
{"compound": "Oc1cc(Cl)ccc1C1c2[nH]c3ccc(Cl)cc3c2CCN1c1ncc(F)cn1 (centres unmarked)", "cat": "condition not met"}
{"compound": "CC(C)c1ccc(C2c3[nH]c4cc(F)c(Cl)cc4c3CCN2c2ncc(F)cn2)cc1 (centres unmarked)", "cat": "condition not met"}
{"compound": "Cc1nc(N2CCc3c([nH]c4ccc(Cl)c(F)c34)C2c2cccc(F)c2F)nc(C)c1F (centres unmarked)", "cat": "condition met"}

---

# Tested on: MOLM-13 cells
# assay: MOLM-13 Cell Proliferation Assay (indicator of DHODH inhibition)
# Type: cell-based
# run.parameters: Homo sapiens, 72 Hours of culture, CellTiter-Glo, no uridine
pIC50: −log10 of the molar value.
Assign true whenever pIC50 does not fall below 8; assign false whenever it does.

{"compound": "Cc1ccc([C@H]2c3[nH]c4ccc(Cl)cc4c3CCN2c2ncnc(C(F)(F)F)n2)cc1", "cat": "true"}
{"compound": "OCCCc1ccc(C2c3[nH]c4cc(F)c(Cl)cc4c3CCN2c2ncc(F)cn2)cc1 (stereo not shown)", "cat": "false"}
{"compound": "Cc1cc(C)nc(N2CCc3c([nH]c4ccc(Cl)cc34)C2c2ccc(N3CCOCC3)nc2)n1 (stereo not shown)", "cat": "true"}
{"compound": "Fc1ccc(C2c3[nH]c4ccc(Cl)c(F)c4c3CCN2c2ncc(Cl)cn2)cc1 (stereo not shown)", "cat": "false"}
{"compound": "Cc1nc(N2CCc3c([nH]c4cc(F)c(Cl)cc34)C2c2ccc(CCCCO)cc2)ncc1F (stereo not shown)", "cat": "true"}
{"compound": "CCCCOC(=O)c1ccnc(N2CCc3c([nH]c4ccc(Cl)cc34)C2c2ccc(C)cc2)n1 (stereo not shown)", "cat": "true"}
{"compound": "FC(F)(F)c1cnnc(N2CCc3c([nH]c4ccc(Cl)cc34)C2c2ccc(N3CCOCC3)nc2)n1 (stereo not shown)", "cat": "true"}
{"compound": "Cc1nc(N2CCc3c([nH]c4ccc(Cl)c(F)c34)C2c2cccc(F)c2F)ncc1F (stereo not shown)", "cat": "true"}
{"compound": "COC(=O)CCc1ccc(C2c3[nH]c4cc(F)c(Cl)cc4c3CCN2c2nccc(C(F)(F)F)n2)cc1 (stereo not shown)", "cat": "true"}
{"compound": "CSc1nc(N2CCc3c([nH]c4ccc(Cl)cc34)[C@@H]2c2ccc(N3CCN(C)CC3)nc2)nc(C(F)(F)F)n1", "cat": "true"}
{"compound": "Cc1ccc(C2c3[nH]c4ccc(Cl)cc4c3CCN2c2nc(Cl)cc(Cl)n2)cc1 (stereo not shown)", "cat": "true"}
{"compound": "Fc1c(Cl)ccc2[nH]c3c(c12)CCN(c1nccc(C(F)(F)F)n1)C3c1cncnc1 (stereo not shown)", "cat": "false"}
{"compound": "Cc1ccc(C2c3[nH]c4ccc(Cl)c(F)c4c3CCN2c2ncc(F)c(C)n2)c(F)c1F (stereo not shown)", "cat": "true"}
{"compound": "COC(=O)c1ccnc(N2CCc3c([nH]c4ccc(Cl)c(F)c34)C2c2ccc(C#N)cc2)n1 (stereo not shown)", "cat": "false"}
{"compound": "CN(C)c1ncc(C2c3[nH]c4ccc(Cl)c(F)c4c3CCN2c2nccc(C(F)(F)F)n2)cn1 (stereo not shown)", "cat": "true"}

---

Listing: pIC50 of selected molecules
# System: MOLM-13 cells
# assay: MOLM-13 Cell Proliferation Assay (indicator of DHODH inhibition)
# Type: cell-based
# run.parameters: Homo sapiens, 72 Hours of culture, CellTiter-Glo, no uridine
pIC50: −log10 of the molar value.

{"molecule": "COC(=O)CCc1ccc(C2c3[nH]c4cc(F)c(Cl)cc4c3CCN2c2ncc(F)cn2)cc1 (stereo not shown)", "pIC50": 7.78}
{"molecule": "N#Cc1ccc(C2c3[nH]c4cc(F)c(Cl)cc4c3CCN2c2nccc(C#N)n2)cc1 (stereo not shown)", "pIC50": 7.17}
{"molecule": "CN1CCN(c2ncc([C@H]3c4[nH]c5ccc(Cl)cc5c4CCN3c3nc(N4CCN(C)CC4)nc(C(F)(F)F)n3)cn2)CC1", "pIC50": 7.18}
{"molecule": "Cc1ccc(C2c3[nH]c4ccc(Cl)cc4c3CCN2c2nccc(C(F)(F)F)n2)c(O)c1 (stereo not shown)", "pIC50": 8.89}
{"molecule": "Cc1cnn(-c2ccc3[nH]c4c(c3c2)CCN(c2nc(C(F)(F)F)cc(C(F)(F)F)n2)[C@H]4c2ccc(C)c(F)c2F)n1", "pIC50": 8.77}
{"molecule": "CSc1nc(N2CCc3c([nH]c4ccc(F)cc34)C2c2ccc(C)c(F)c2F)nc(C(F)(F)F)n1 (stereo not shown)", "pIC50": 8.06}
{"molecule": "N#Cc1cc(C(F)(F)F)nc(N2CCc3c([nH]c4ccc(Cl)cc34)[C@@H]2c2cnc(N3CCOCC3)nc2)n1", "pIC50": 8.92}

---

# System: MOLM-13 cells
# assay: MOLM-13 Cell Proliferation Assay (indicator of DHODH inhibition)
# Format: cell-based
# run.parameters: Homo sapiens, 72 Hours of culture, CellTiter-Glo, no uridine
Listing: IC50 of selected molecules
test.readout: IC50

{"molecule": "Cc1ccc(C2c3[nH]c4cc(F)c(Cl)cc4c3CCN2c2nccc(C#N)n2)cc1 (stereo not shown)", "observed.result": "14.7 nM"}
{"molecule": "FC(F)(F)c1cnnc(N2CCc3c([nH]c4ccc(Cl)cc34)C2c2cnc(N3CCOCC3)nc2)n1 (stereo not shown)", "observed.result": "1.6 nM"}
{"molecule": "Nc1ncc(C2c3[nH]c4ccc(Cl)c(F)c4c3CCN2c2ncc(F)cn2)cn1 (stereo not shown)", "observed.result": "71 nM"}
{"molecule": "CN1CCN(c2ncc([C@H]3c4[nH]c5ccc(-n6nccn6)cc5c4CCN3c3ncnc(C(F)(F)F)n3)cn2)CC1", "observed.result": "5.7 nM"}
